# Study system: cynomolgus HER2 antigen (cynomolgus monkey)
# Method: SPR (ProteOn XPR36), IgG captured by anti-human Fc, soluble monovalent antigen, 1:1 fit
Below: a set of entries, each annotated with reported koff.
Kindly provide the numeric value in s⁻¹ only, without the unit symbol.

Record summary for humanized anti-HER2 antibody 11145 (antibody, V domains shown) VH: EVQLVESGGGLVKPGGSLRLSCAASGFTFSSYGMSWVRQAPGKGLEWVATISGGGSYTYYPDSVKGRFTISRDIAKSSLYLQMNSLRAEDTAVYYCARKGNYGNYGKLAYWGQGTTVTVSS VL: DIQMTQSPSSLSASVGDRVTITCRASENIYSNLAWYQQKPGKAPKLLIYAATNLATGVPSRFSGSGSGTDYTLTISSLQPEDFASYYCQHFWGTPWTFGQGTKLEIK : reported koff = 0.00063

Record summary for humanized anti-HER2 antibody 11249 (antibody, V domains shown) VH: QVQLVQSGAEVKKPGASVKVSCKASGYTFTSHWMHWVRQAPGQGLEWMGNINPSSGGTNYNEKFKSRVTMTVDTSTSTVYMELSSLRSEDTAVYYCARAYYDFSWFVYWGQGTLVTVSS VL: DIQMTQSPSSLSASVGDRVTITCRSSQDISNYLNWYQQKPGKAPKLLMYISRLHSGVPSRFSGSGSGTDYTFTISSLQPEDIATYYCQQGNTLPLTFGGGTKVEIK : reported koff = 0.00038

Record summary for chimeric anti-HER2 antibody 4517 (antibody, V domains shown, light chain entry is full length) VH: EVQLVESGGDLVKPGGSLKLSCAASGFTFSSYGMSWVRLTPDKRLEWVATISGGGSYTYYPDSVKGRFTISRDIAKSTLYLQMSSLKSEDTAVYYCARKGNYGNYGKLAYWGQGTSVTVS VL: DIQMTQSPASLSVSVGETVTITCRASENIYSNLAWYQQEQGKSPQLLVYAATNLADGVPSRFSGSGSGTQYSLKINSLQSEDFGSYYCQHFWGTPWTFGGGTKLEIKR : reported koff = 0.00086

This collection of values is drawn from patent US20170165365A1.
